These entries and their values trace back to paper PMC10112521.

# Subject Of Test: human AR (Homo sapiens)
# Sequence (P10275 whole entry): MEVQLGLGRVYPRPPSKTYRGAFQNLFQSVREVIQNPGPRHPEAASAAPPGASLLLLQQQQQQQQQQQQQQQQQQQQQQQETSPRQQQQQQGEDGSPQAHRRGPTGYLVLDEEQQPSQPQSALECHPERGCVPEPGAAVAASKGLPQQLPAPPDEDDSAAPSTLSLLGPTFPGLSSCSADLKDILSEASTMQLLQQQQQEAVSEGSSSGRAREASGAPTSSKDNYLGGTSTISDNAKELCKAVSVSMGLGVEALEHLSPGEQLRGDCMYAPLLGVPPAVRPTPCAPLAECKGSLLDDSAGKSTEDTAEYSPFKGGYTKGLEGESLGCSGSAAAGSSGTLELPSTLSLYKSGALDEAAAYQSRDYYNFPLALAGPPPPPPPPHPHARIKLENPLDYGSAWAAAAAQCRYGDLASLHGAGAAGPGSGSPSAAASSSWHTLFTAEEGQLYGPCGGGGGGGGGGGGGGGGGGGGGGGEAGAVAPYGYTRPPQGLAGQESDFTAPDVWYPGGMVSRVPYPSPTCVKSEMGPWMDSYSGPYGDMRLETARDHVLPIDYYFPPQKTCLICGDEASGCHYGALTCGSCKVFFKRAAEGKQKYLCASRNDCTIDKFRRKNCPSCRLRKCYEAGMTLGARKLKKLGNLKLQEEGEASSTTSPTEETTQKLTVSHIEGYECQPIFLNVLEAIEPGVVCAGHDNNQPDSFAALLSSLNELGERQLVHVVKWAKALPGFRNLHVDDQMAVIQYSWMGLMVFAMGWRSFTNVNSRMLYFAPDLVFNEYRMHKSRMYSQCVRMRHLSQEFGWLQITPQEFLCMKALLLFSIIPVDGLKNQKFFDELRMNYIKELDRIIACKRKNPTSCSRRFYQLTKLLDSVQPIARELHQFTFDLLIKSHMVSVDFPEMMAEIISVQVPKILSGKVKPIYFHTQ
# Sequence (P10275 whole entry): as above
# Assay Summary: AR2 assay, antagonist mode: disruption of R1881 (10 nM)-induced AR homodimerization in HepG2-AR2 cells
# Format: cell-based
# Condition Context: spid AR_antagonist; sheet antagonist_fits; 0 where win_model is Constant
Structures can show the parent of a compound that is named as a salt.
Listing: hill_gw (Hill model slope) of selected compounds
Parameter: hill_gw (Hill model slope)

• CCOP(=S)(OCC)Oc1nc(Cl)c(Cl)cc1Cl = 1.601
• CC(C)=CC1C(C(=O)OCN2C(=O)C3=C(CCCC3)C2=O)C1(C)C (centres unmarked) = 3.974
• C[C@]12CC[C@H]3C(=CCc4cc(O)ccc43)[C@@H]1CCC2=O = 1.131
• O=c1c(-c2ccc(O)cc2)coc2cc(O)ccc12 = 1.585
• COC(=O)Nc1nc2ccccc2[nH]1 = 8
• O=[N+]([O-])c1ccc(O)c([N+](=O)[O-])c1 = 1.229
• CC/C(=C(\c1ccc(O)cc1)c1ccc(OCCN(C)C)cc1)c1ccccc1 [Afimoxifene (4-Hydroxytamoxifen)] = 3.209
• CCCCNC(=O)n1c(NC(=O)OC)nc2ccccc21 = 3.063
• CNC(=O)Oc1cccc2c1OC(C)(C)C2 = 1.516
• O=c1c(-c2ccc(O)cc2)coc2cc(O)cc(O)c12 = 2.066
• N#Cc1ccc(C(c2ccc(C#N)cc2)n2cncn2)cc1 = 1.809
• CC1(C)[C@H](C(=O)O[C@H](C#N)c2cccc(Oc3ccccc3)c2)[C@@H]1C=C(Br)Br = 2.614
• C[C@]12CC[C@@H]3c4ccc(O)cc4CC[C@H]3[C@@H]1CCC2=O = 1.278
• CC(C)(O)C(=O)Nc1ccc([N+](=O)[O-])c(C(F)(F)F)c1 [Hydroxyflutamide] = 8
• O=C(c1ccc(O)cc1O)c1ccc(O)cc1O [2,2',4,4'-Tetrahydroxybenzophenone] = 1.5932
• CCCCOC(=O)c1ccc(O)cc1 = 8
• CC(C)(c1ccc(O)cc1)c1ccc(O)cc1 = 1.098
• CCOC(=O)CC(SP(=S)(OC)OC)C(=O)OCC (centres unmarked) = 0.997
• CCN(CC)CCOc1ccc(C(=C(Cl)c2ccccc2)c2ccccc2)cc1 [Clomiphene citrate] = 2.036
• CCCC1COC(Cn2cncn2)(c2ccc(Cl)cc2Cl)O1 (centres unmarked) = 1.532
• CCCSP(=O)(OCC)SCCC = 1.091
• CC1(C)C(C=C(Cl)Cl)C1C(=O)OCc1cccc(Oc2ccccc2)c1 (centres unmarked) = 1.786
• CCCN(CCC)c1c([N+](=O)[O-])cc(C(F)(F)F)cc1[N+](=O)[O-] = 1.383
• C[C@]12CC[C@@H]3c4ccc(O)cc4C[C@@H](CCCCCCCCC[S+]([O-])CCCC(F)(F)C(F)(F)F)[C@H]3[C@@H]1CC[C@@H]2O (some centres unmarked) = 0.7802
• O=C1C[C@@H](c2ccc(O)cc2)Oc2cc(O)cc(O)c21 = 8
• O=[N+]([O-])c1c(Cl)c(Cl)c(Cl)c(Cl)c1Cl = 8
• CNC(=O)O/N=C(\SC)C(=O)N(C)C = 0
• CCN(CC)CCOc1ccc(/C(=C(/Cl)c2ccccc2)c2ccccc2)cc1 [Enclomiphene hydrochloride] = 2.002
• CC12CC1(C)C(=O)N(c1cc(Cl)cc(Cl)c1)C2=O (centres unmarked) = 0.938
